The following compounds have recorded log10 of Ki on Interstitial collagenase (Homo sapiens).
Sequence (P03956 whole entry): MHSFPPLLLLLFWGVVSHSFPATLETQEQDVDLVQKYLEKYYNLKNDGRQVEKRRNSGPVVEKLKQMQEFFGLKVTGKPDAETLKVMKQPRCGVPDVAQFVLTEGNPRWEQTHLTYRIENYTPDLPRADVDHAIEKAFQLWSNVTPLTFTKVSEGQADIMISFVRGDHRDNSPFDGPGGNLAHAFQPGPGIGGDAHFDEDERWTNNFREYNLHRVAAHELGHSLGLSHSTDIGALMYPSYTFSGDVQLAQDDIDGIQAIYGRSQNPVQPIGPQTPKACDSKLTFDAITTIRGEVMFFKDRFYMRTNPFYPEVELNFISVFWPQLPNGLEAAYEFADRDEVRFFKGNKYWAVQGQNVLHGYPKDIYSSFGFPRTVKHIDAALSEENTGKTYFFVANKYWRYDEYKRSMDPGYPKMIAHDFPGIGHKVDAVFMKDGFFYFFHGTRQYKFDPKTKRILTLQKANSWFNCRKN
measured.property: log10 of Ki (log10 of the value in nM)

INSERT INTO results (chem_smiles, measured_property, result) VALUES
  ('O=C(CN(Cc1ccc([N+](=O)[O-])cc1)S(=O)(=O)c1cccc(NC(=O)NS(=O)(=O)c2ccccc2)c1)NO', 'log10 of Ki', 1.78),
  ('O=C(CN(Cc1ccc([N+](=O)[O-])cc1)S(=O)(=O)c1ccc(Br)cc1)NO', 'log10 of Ki', 1.40),
  ('Cc1ccc(S(=O)(=O)NC(=O)Nc2cccc(S(=O)(=O)N(CC(=O)NO)Cc3ccc([N+](=O)[O-])cc3)c2)cc1', 'log10 of Ki', 1.72),
  ('Cc1cc(C)c(S(=O)(=O)N(CC(=O)NO)Cc2ccc([N+](=O)[O-])cc2)c(C)c1', 'log10 of Ki', 1.56),
  ('CC(C)(C)OC(=O)Nc1cccc(S(=O)(=O)N(CC(=O)NO)Cc2ccc([N+](=O)[O-])cc2)c1', 'log10 of Ki', 1.41),
  ('O=C(CN(Cc1ccc([N+](=O)[O-])cc1)S(=O)(=O)c1ccc([N+](=O)[O-])c(Cl)c1)NO', 'log10 of Ki', 1.49),
  ('CC(C)(C)OC(=O)Nc1ccc(S(=O)(=O)N(CC(=O)NO)Cc2ccc([N+](=O)[O-])cc2)cc1', 'log10 of Ki', 1.23),
  ('CN(C)c1cccc2c(S(=O)(=O)N(CC(=O)NO)Cc3ccc([N+](=O)[O-])cc3)cccc12', 'log10 of Ki', 1.92),
  ('O=C(CN(Cc1ccc([N+](=O)[O-])cc1)S(=O)(=O)C(F)(F)C(F)(F)C(F)(F)C(F)(F)C(F)(F)C(F)(F)C(F)(F)C(F)(F)F)NO', 'log10 of Ki', 1.90),
  ('CC(=O)Nc1ccc(S(=O)(=O)N(CC(=O)NO)Cc2ccc([N+](=O)[O-])cc2)cc1', 'log10 of Ki', 1.15),
  ('O=C(CN(Cc1ccc([N+](=O)[O-])cc1)S(=O)(=O)c1ccc(F)cc1)NO', 'log10 of Ki', 1.28),
  ('O=C(CN(Cc1ccc([N+](=O)[O-])cc1)S(=O)(=O)c1ccc(NC(=O)NS(=O)(=O)c2ccc(F)cc2)cc1)NO', 'log10 of Ki', 1.73),
  ('Cc1ccccc1S(=O)(=O)NC(=O)Nc1cccc(S(=O)(=O)N(CC(=O)NO)Cc2ccc([N+](=O)[O-])cc2)c1', 'log10 of Ki', 1.76),
  ('O=C(CN(Cc1ccc([N+](=O)[O-])cc1)S(=O)(=O)c1ccc(I)cc1)NO', 'log10 of Ki', 1.46),
  ('O=C(CN(Cc1ccc([N+](=O)[O-])cc1)S(=O)(=O)c1cccs1)NO', 'log10 of Ki', 1.15),
  ('Cc1ccc(S(=O)(=O)NC(=O)Nc2ccc(S(=O)(=O)N(CC(=O)O)Cc3ccc([N+](=O)[O-])cc3)cc2)cc1', 'log10 of Ki', 1.97),
  ('O=C(CN(Cc1ccc([N+](=O)[O-])cc1)S(=O)(=O)c1cccc(C(F)(F)F)c1)NO', 'log10 of Ki', 0.70),
  ('O=C(CN(Cc1ccc([N+](=O)[O-])cc1)S(=O)(=O)c1cccc(C(=O)O)c1)NO', 'log10 of Ki', 1.61),
  ('O=C(CN(Cc1ccc([N+](=O)[O-])cc1)C(=O)Nc1ccc(Cl)c(Cl)c1)NO', 'log10 of Ki', 1.49),
  ('O=C(O)CN(Cc1ccc([N+](=O)[O-])cc1)S(=O)(=O)c1ccc(NC(=O)NS(=O)(=O)c2ccc(Cl)cc2)cc1', 'log10 of Ki', 1.98),
  ('O=C(CN(Cc1ccc([N+](=O)[O-])cc1)Sc1ccc([N+](=O)[O-])cc1)NO', 'log10 of Ki', 1.26),
  ('Cc1ccccc1S(=O)(=O)NC(=O)Nc1ccc(S(=O)(=O)N(CC(=O)NO)Cc2ccc([N+](=O)[O-])cc2)cc1', 'log10 of Ki', 1.86),
  ('CS(=O)(=O)N(CC(=O)NO)Cc1ccc([N+](=O)[O-])cc1', 'log10 of Ki', 1.88),
  ('O=C(CN(Cc1ccc([N+](=O)[O-])cc1)S(=O)(=O)c1ccc(NC(=O)NS(=O)(=O)c2ccc(Cl)cc2)cc1)NO', 'log10 of Ki', 1.70),
  ('O=C(CN(Cc1ccc([N+](=O)[O-])cc1)S(=O)(=O)c1cc(Cl)ccc1Cl)NO', 'log10 of Ki', 0.95),
  ('O=C(CN(Cc1ccc([N+](=O)[O-])cc1)S(=O)(=O)C(Cl)(Cl)Cl)NO', 'log10 of Ki', 1.38),
  ('CN(C)S(=O)(=O)N(CC(=O)NO)Cc1ccc([N+](=O)[O-])cc1', 'log10 of Ki', 1.41),
  ('COc1ccc(S(=O)(=O)N(CC(=O)NO)Cc2ccc([N+](=O)[O-])cc2)cc1NC(=O)OC(C)(C)C', 'log10 of Ki', 1.40),
  ('O=C(CN(Cc1ccc([N+](=O)[O-])cc1)C(=O)NS(=O)(=O)c1ccccc1)NO', 'log10 of Ki', 1.59),
  ('Cc1ccc(S(=O)(=O)NC(=O)N(CC(=O)NO)Cc2ccc([N+](=O)[O-])cc2)cc1', 'log10 of Ki', 1.73),
  ('Cc1ccc(S(=O)(=O)N(CC(=O)NO)Cc2ccc([N+](=O)[O-])cc2)cc1', 'log10 of Ki', 1.48);
